# measurement_description: clinical
# measurement_parameters: male, human, in vivo, po, 200 mg
quantity: Cmax (µM)

compound	units_symbol	numeric_value
Nc1nc(=O)n(C2C=CC(CO)O2)cc1F (stereo not shown)	µM	12.6

###

# measurement_description: in vivo
# measurement_parameters: male, dog, 15 mg/kg
quantity: AUC at 12 m (µM·h)

compound	units_symbol	numeric_value
Nc1nc(=O)n(C2C=CC(CO)O2)cc1F [β-D-D4FC]	µM·h	401

###

# measurement_description: clinical
# measurement_parameters: male, human, in vivo, po, 50 mg, Tmax
quantity: Tmax (h)

molecule	quantity	numeric_value
Nc1nc(=O)n(C2C=CC(CO)O2)cc1F [β-D-D4FC]	Tmax	2

###

# measurement_description: Food effect, fed versus fasted crossover (Cohort 4)
# measurement_parameters: human, plasma, oral, 100 mg, CLtot/F, 100 MG FASTED, coated tablet, PART B

molecule	CL/F
Nc1nc(=O)n(C2C=CC(CO)O2)cc1F (stereo not shown)	478 mL/min

###

# tested_target: M184V mutant RT (Human immunodeficiency virus type 1 group M subtype B, UniProt P04585, M771V)
# measurement_description: biochemical
# Type: biochemical, HIV-1

molecule	units_symbol	Ki
Cc1cn([C@H]2C=C[C@@H](CO)O2)c(=O)[nH]c1=O [D4T, 2′,3′-didehydro-2′,3′-dideoxythymidine]	µM	3

###

# measurement_description: in vivo
# measurement_parameters: rat, 45 mg/kg

molecule	Cmax at 28 d, µM
Nc1nc(=O)n(C2C=CC(CO)O2)cc1F (stereo not shown)	44

###

# measurement_description: clinical
# measurement_parameters: male, human, in vivo, 50 mg, tmax

compound	units_symbol	Tmax
Nc1nc(=O)n(C2C=CC(CO)O2)cc1F (stereo not shown)	h	1

###

# Test system: HepG2 cells
# measurement_description: Mitochondrial toxicity testing (mitDNA, rRNA, lactic acid)
# Assay type: cell-based
# measurement_parameters: 10 μM, 14 days
Measured % Change in mitDNA, listed per entry.
quantity: % Change in mitDNA (%)

compound	quantity	numeric_value
Nc1ccn([C@H]2CC[C@@H](CO)O2)c(=O)n1 [ddC, 2′,3′-dideoxycytidine]	% Change in mitDNA	−99.7
Nc1ccn([C@@H]2CS[C@H](CO)O2)c(=O)n1 [3TC, β-L-2′,3′-dideoxy-3′-thiacytidine]	% Change in mitDNA	−9
Nc1nc(=O)n([C@H]2C=C[C@@H](CO)O2)cc1F [L-D4FC]	% Change in mitDNA	−74.2
Nc1nc(=O)n(C2C=CC(CO)O2)cc1F [β-D-D4FC]	% Change in mitDNA	−1.6

###

# measurement_description: clinical
# measurement_parameters: male, human, in vivo, 100 mg, Cmax
quantity: Cmax (ng/mL)

compound	quantity	numeric_value
Nc1nc(=O)n(C2C=CC(CO)O2)cc1F (stereo not shown)	Cmax	1120

###

# measurement_description: clinical
# measurement_parameters: male, human, in vivo, 10 mg, lowest Cmax, at which a maximal effect of viral inhibition was obtained
# Protocol: Total of 18 HIV-1 infected males, aged 18-55 years, enrolled, 6 per treatment cohort. In Cohort 3, subjects received either 100 mg, or 200 mg, or placebo. The data was analyzed using non-compartmental and two-compartmental models. HIV RNA levels were also determined using quantitative real-time RT-PCR. […]

compound	units_symbol	Cmax
Nc1nc(=O)n(C2C=CC(CO)O2)cc1F (stereo not shown)	nM	870
